B1: HDAC6 (parent)
chain: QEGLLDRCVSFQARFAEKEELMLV

Variants of: B1
method_summary: protein stability index of a GFP-peptide fusion (GPS, HEK-293T) (PSI 1-6); higher = more stable;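 note: lentivirally expressed fusions sorted by FACS into six bins by GFP to DsRed ratio, PSI derived from sequencing read proportions per bin multiplied by bin number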
conditions_used: c terminus: a fixed tail appended
Measured protein stability index by item
Enter a number only.

Solved entries (count: 2):
L4Q 1.99
E20W 2.02

The variant listed as E17Q has a reported protein stability index of 2.05

The variant listed as E2R has a reported protein stability index of 1.95
